test: Restrictive medium S. cerevisiae growth inhibition, OD615, pilot screen of yeast lifespan reduction project, restrictive growth control (AID 706);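 further: modified DeaD lifespan yeast strain shifted to restrictive glucose medium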
details: OD615, 48 h, at 10 µM, stronger effect = higher value
Calls of active or inactive are those of the source.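 How the source made its calls: active means growth inhibition above a set limit, 3 SD over mean compound inhibition, in both replicates (cut at about 43% in these data); inconclusive means above the limit in only one replicate; inactive means at or below the limit in both replicates.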
measuredAttribute: growth inhibition

Entry Cc1ccc2c(c1)c1c(n2CC(O)Cn2c(C)nc3ccccc32)C(=O)CCC1 (configuration not stated) — recorded growth inhibition = -1.9% (inactive)

Entry CCC(CC)C(=O)Nc1ccccc1NC(C)=O — recorded growth inhibition = 0.295% (inactive)

Entry COc1cccc(C(=O)Nc2ccc(-c3nc4ccccc4o3)c(O)c2)c1 — recorded growth inhibition = -12.1% (inactive)

Entry O=C1C2CCCN2C(c2ccc(F)cc2)N1c1cccc(Cl)c1 (configuration not stated) — recorded growth inhibition = 0.01% (inactive)

Entry Cc1ccc2ccc(S(=O)(=O)n3nc(C)cc3C)cc2c1 — recorded growth inhibition = 2.99% (inactive)

# map each compound to its growth inhibition
1. Cc1onc(-c2ccccc2)c1C(=O)Nc1ccc2c(C)cc(=O)oc2c1
2. O=C(Cn1cc2c(n1)CCCCC2)NC1CCCCCC1
3. COc1ccc2occ(C(=O)c3ccc(N=C(C)N(C)C)cc3)c2c1
4. NS(=O)(=O)c1ccc(CCNC(=O)C2CCCN(S(=O)(=O)c3cccnc3)C2)cc1 (configuration not stated)
5. CCOC(=O)N1CCN(C(=O)c2oc3ccc(S(=O)(=O)N4CCCCCC4)cc3c2C)CC1
6. CCC(C(=O)N1CC2(C)CC1CC(C)(C)C2)N1C(=O)c2ccccc2C1=O (configuration not stated)
7. CCc1ccc(C2CC(c3ccccc3C)n3nc(N)nc3N2)cc1 (configuration not stated)

Marked response:
1. -0.655% (inactive)
2. -9.21% (inactive)
3. -16.5% (inactive)
4. -8.71% (inactive)
5. -0.595% (inactive)
6. -3.99% (inactive)
7. -3.1% (inactive)

# map each compound to its growth inhibition
1. Cc1ccc(N(CC(=O)Nc2ccc(S(=O)(=O)N3CCOCC3)cc2)S(C)(=O)=O)cc1C
2. Cc1nc(N2CCN(c3ccccc3)CC2)c2c3c(sc2n1)CCC3
3. CCN(CCNC(=O)Cn1cc2c(n1)CCCC2)c1ccccc1
4. O=C(Cn1cc2c(n1)CCCC2)NCCCN1CCN(c2ccccc2F)CC1
5. Cc1csc(NC(=O)CSc2nnc(Cn3c(=O)sc4ccccc43)n2-c2ccccc2)n1
6. CCSc1nnc(NC(=O)C(C)C)s1
7. COc1ccc(N2C(=O)CCC(C(=O)N3CCC(C(N)=O)CC3)C2c2ccc(F)cc2)cc1 (configuration not stated)
8. CC1CSc2nnc(CCc3ccccc3)n21 (configuration not stated)

Marked response:
1: -5.42% (inactive); 2: 29.8% (inactive); 3: -6.55% (inactive); 4: -6.56% (inactive); 5: 15.3% (inactive); 6: -5.11% (inactive); 7: -16.2% (inactive); 8: -7.96% (inactive)

# map each compound to its growth inhibition
1. CCOC(=O)N1CCN(C(=O)CS(=O)Cc2nc(-c3cccc(C)c3)oc2C)CC1 (configuration not stated)
2. CCOC(=O)c1c2n(c3c(NCc4ccccc4)ncnc13)CCCC2

Marked response:
["-16.8% (inactive)", "-10.9% (inactive)"]

The reported numbers originate from PubChem BioAssay.
